- Tested on: ivyleaf morningglory (Ipomoea hederacea, IPOHE)
- measurement_description: Post-emerge test, greenhouse herbicide activity screening
- Assay type: in vivo
- measurement_setup: post-emerge, 250 g ai/ha, phytotoxicity rating 0-100 at 14 days after application
Reported Post-emerge Herbicidal Activity IPOHE values for a set of molecules
Give only the figure.

Example cases with answers are listed next.
[[record]]
molecule = "COc1c(Cl)cc(F)c(-n2ncc(C(F)(F)F)c(C)c2=O)c1NC(=O)c1ccc2ccccc2c1"
measured_value = 98

[[record]]
molecule = "COc1c(Cl)cc(F)c(N2C(=O)C3=C(CCCC3)C2=O)c1N"
measured_value = 70

[[record]]
molecule = "C=Cc1ccc(C(=O)Nc2c(OC)c(Cl)cc(F)c2N2C(=O)C3=C(CCCC3)C2=O)cc1"
measured_value = 100

[[record]]
molecule = "Cc1c(Cl)cc(F)c(-n2c(=O)cc(C(F)(F)F)n(C)c2=O)c1NC(=O)OCc1ccc(Cl)cc1"
measured_value = 100

[[record]]
molecule = "CC(C)Oc1c(Cl)cc(F)c(N2C(=O)C3=C(CCCC3)C2=O)c1NC(=O)c1ccc(F)cc1F"
measured_value = 60

[[record]]
molecule = "COc1c(Cl)cc(F)c(N2C(=O)C3CCCCN3C2=S)c1NC(=O)c1ccc2ccccc2c1 (stereo not shown)"
measured_value = 99


What measured Post-emerge Herbicidal Activity IPOHE is associated with `Cc1c(Cl)cc(F)c(-n2c(=O)cc(C(F)(F)F)n(C)c2=O)c1NC(=O)OCc1ccco1` on ivyleaf morningglory (Ipomoea hederacea, IPOHE)? 100

Ok, now `O=C(Nc1cc(Cl)ccc1-n1c(=O)n2n(c1=S)CCCC2)c1ccc2ccccc2c1` 90

Same lookup for `COc1cccc(OC)c1OC(=O)Nc1c(C)c(Cl)cc(F)c1-n1c(=O)cc(C(F)(F)F)n(C)c1=O` , please. 100

Follow-up entry: `COc1c(Cl)cc(F)c(-n2nc(C)n(C(F)F)c2=O)c1NC(=O)c1ccc(F)cc1F` 100

###

Below, each entry is listed with its recorded Pre-emerge Herbicidal Activity SETVI (phytotoxicity rating, scale 0-100).
- Tested on: green foxtail (Setaria viridis, SETVI)
- measurement_description: Pre-emerge test, greenhouse herbicide activity screening
- Type: in vivo
- measurement_setup: 250 g ai/ha; pre-emerge; rated 14 days after application; 0 = no damage, 100 = complete death
Lab note: jot down the number only; don't add units.

[[record]]
compound = "CCc1ccc(C(=O)Nc2c(OC)c(Cl)cc(F)c2-n2c(=O)cc(C(F)(F)F)n(C)c2=O)cc1"
tested_on = "green foxtail (Setaria viridis, SETVI)"
measured_value = 100

[[record]]
compound = "COc1c(Cl)cc(F)c(-n2c(=O)cc(C(F)(F)F)n(C)c2=O)c1N(C(=O)C1CC1)C(=O)C1CC1"
tested_on = "green foxtail (Setaria viridis, SETVI)"
measured_value = 80

[[record]]
compound = "Cn1c(C(F)(F)F)cc(=O)n(-c2c(F)cc(Cl)c(OC(F)F)c2N)c1=O"
tested_on = "green foxtail (Setaria viridis, SETVI)"
measured_value = 100

[[record]]
compound = "CCOC(=O)C(C)Nc1c(OC)c(Cl)cc(F)c1-n1c(=O)cc(C(F)(F)F)n(C)c1=O (stereo not drawn)"
tested_on = "green foxtail (Setaria viridis, SETVI)"
measured_value = 0

[[record]]
compound = "COc1c(Cl)cc(F)c(-n2c(=O)cc(C(F)(F)F)n(C)c2=O)c1NC(=O)C=C(C)C"
tested_on = "green foxtail (Setaria viridis, SETVI)"
measured_value = 100


Below: the item to evaluate.
What Pre-emerge Herbicidal Activity SETVI (phytotoxicity rating, scale 0-100) value was documented for this compound, `C=Cc1ccc(C(=O)Nc2c(OC)c(Cl)cc(F)c2-n2c(=O)cc(C(F)(F)F)n(C)c2=O)cc1` ? 100

###

- Test system: ivyleaf morningglory (Ipomoea hederacea, IPOHE)
- measurement_description: Post-emerge test, greenhouse herbicide activity screening
- Assay type: in vivo
- measurement_setup: post-emerge, 250 g ai/ha, 14 days after application, rating scale 0-100
Examples of compounds with documented phytotoxicity rating IPOHE follow.
Response field accepts a number only; no unit should be typed.

Please review the following examples before continuing.
[[record]]
compound = "COc1c(Cl)cc(F)c(-n2c(=O)cc(C(F)(F)F)n(C)c2=O)c1NC(=O)c1ccc(F)cc1 [2-40]"
recorded_metric = "phytotoxicity rating IPOHE"
measured_value = 100

[[record]]
compound = "COc1c(Cl)cc(F)c(-n2c(=O)cc(C(F)(F)F)n(C)c2=O)c1N(C(=O)COc1ccccc1)C(=O)COc1ccccc1 [2-120]"
recorded_metric = "phytotoxicity rating IPOHE"
measured_value = 100

[[record]]
compound = "CCCCCC(=O)Nc1c(OC)c(Cl)cc(F)c1-n1c(=O)cc(C(F)(F)F)n(C)c1=O [2-198]"
recorded_metric = "phytotoxicity rating IPOHE"
measured_value = 100

[[record]]
compound = "COc1c(Cl)cc(F)c(-n2c(=O)cc(C(F)(F)F)n(C)c2=O)c1NC(=O)c1ccc(Cl)cc1Cl [2-58]"
recorded_metric = "phytotoxicity rating IPOHE"
measured_value = 100

[[record]]
compound = "Cc1c(Cl)cc(F)c(-n2c(=O)cc(C(F)(F)F)n(C)c2=O)c1NC(=O)c1ccc2ccccc2c1 [Compound 2-122]"
recorded_metric = "phytotoxicity rating IPOHE"
measured_value = 80

[[record]]
compound = "COc1c(Cl)cc(F)c(-n2c(=O)cc(C(F)(F)F)n(C)c2=O)c1NC(=O)c1ccccc1F [2-39]"
recorded_metric = "phytotoxicity rating IPOHE"
measured_value = 100

[[record]]
compound = "COc1c(Cl)cc(F)c(-n2c(=O)cc(C(F)(F)F)n(C)c2=O)c1NC(=O)OCc1ccc(C)c(C)c1 [4-26]"
recorded_metric = "phytotoxicity rating IPOHE"
measured_value = 100


Then this compound:
Hi! What's the reported phytotoxicity rating IPOHE for Cc1ccccc1COC(=O)Nc1c(C)c(Cl)cc(F)c1-n1c(=O)cc(C(F)(F)F)n(C)c1=O [4-56] on ivyleaf morningglory (Ipomoea hederacea, IPOHE)? 100

###

- Test system: field corn (Zea mays L., var. Dekalb 535, CORN)
- measurement_description: Post-emerge test, crop safety
- Assay type: in vivo
- measurement_setup: post-emerge, 63 g ai/ha, 14 days after application, rating scale 0-100
recorded_metric: phytotoxicity rating CORN

Given the compound `COc1c(Cl)cc(F)c(-n2c(=O)cc(C(F)(F)F)n(C)c2=O)c1NC(=O)c1ccc(Cl)cc1` , what is its reported phytotoxicity rating CORN? 30

Would you kindly repeat that for `COc1c(Cl)cc(F)c(-n2c(=O)cc(C(F)(F)F)n(C)c2=O)c1NC(=O)c1ccc(C(F)(F)F)cc1` ? 10

Ok, now `COc1c(Cl)cc(F)c(-n2c(=O)cc(C(F)(F)F)n(C)c2=O)c1NC(=O)c1c(F)c(F)c(F)c(F)c1F` 0

One more compound: `COc1c(Cl)cc(F)c(-n2c(=O)cc(C(F)(F)F)n(C)c2=O)c1NC(=O)c1cccc2ccccc12` 0

Moving on to the next compound: `COc1c(Cl)cc(F)c(-n2c(=O)cc(C(F)(F)F)n(C)c2=O)c1NC(=O)c1ccc2ccccc2c1` 10

Note, next up: `COc1c(Cl)cc(F)c(-n2c(=O)cc(C(F)(F)F)n(C)c2=O)c1N(C(=O)C=Cc1ccccc1Cl)C(=O)C=Cc1ccccc1Cl` 0

###

- Tested on: upland rice (Oryza sp., var. Tebonnet, RICE)
- measurement_description: Pre-emerge test, crop safety
- Format: in vivo
- measurement_setup: pre-emerge, 63 g ai/ha, 14 days after application, scale 0-100
recorded_metric: phytotoxicity rating RICE (crop damage)
Respond with the number and no other words.

Here are 3 compounds together with their reported answers.
[[record]]
compound = "Cn1c(C(F)(F)F)cc(=O)n(-c2ccccc2NC(=O)c2ccc3ccccc3c2)c1=O [2-142]"
measured_value = 0

[[record]]
compound = "COc1c(Br)cc(F)c(-n2c(=O)cc(C(F)(F)F)n(C)c2=O)c1N(C(=O)C=Cc1ccccc1)C(=O)C=Cc1ccccc1 [2-178]"
measured_value = 0

[[record]]
compound = "Cn1c(C(F)(F)F)cc(=O)n(-c2ccc(C(F)(F)F)cc2NC(=O)c2ccc3ccccc3c2)c1=O [2-149]"
measured_value = 0


I am curious: what phytotoxicity rating RICE (crop damage) value has been reported for Cn1c(C(F)(F)F)cc(=O)n(-c2ccc(C#N)cc2NC(=O)C=Cc2ccccc2)c1=O [2-141] ? 30

What about this compound? COc1c(Cl)cc(F)c(-n2c(=O)cc(C(F)(F)F)n(C)c2=O)c1NC(=O)COc1ccc(Cl)cc1Cl [2-154] 35

And COc1c(Cl)cc(F)c(-n2c(=O)cc(C(F)(F)F)n(C)c2=O)c1NC(=O)C=Cc1ccccc1[N+](=O)[O-] [2-126] ? 10

Then COc1c(Cl)cc(F)c(-n2c(=O)cc(C(F)(F)F)n(C)c2=O)c1NC(=O)c1ccc2c(Br)cccc2c1 [2-158] ? 0

Another compound: COc1c(Cl)cc(F)c(-n2c(=O)cc(C(F)(F)F)n(C)c2=O)c1NC(=O)c1cc2ccccc2cc1C [2-157] 30

Also COc1c(C#N)cc(F)c(-n2c(=O)cc(C(F)(F)F)n(C)c2=O)c1NC(=O)c1ccc2ccccc2c1 [2-180] , if possible. 40

Moving on to the next compound: COc1c(Cl)cc(F)c(-n2c(=O)cc(C(F)(F)F)n(C)c2=O)c1NC(=O)C(C#N)=Cc1ccccc1 [2-136] 0

// query: Cn1c(C(F)(F)F)cc(=O)n(-c2c(F)cc(OC(F)F)cc2NC(=O)c2ccc3ccccc3c2)c1=O [2-148] 0

Same again, this time with COc1ccc(-n2c(=O)cc(C(F)(F)F)n(C)c2=O)c(NC(=O)c2ccc3ccccc3c2)c1 [2-143] 20

Similarly, COc1c(Cl)cc(F)c(-n2c(=O)cc(C(F)(F)F)n(C)c2=O)c1NC(=O)CCc1cc(C)ccc1C [2-130] ? 0

Would you kindly repeat that for COc1c(Cl)cc(F)c(-n2c(=O)cc(C(F)(F)F)n(C)c2=O)c1NC(=O)CCc1ccccc1C [2-129] ? 40

One more compound: COc1ccccc1C=CC(=O)Nc1c(OC)c(Cl)cc(F)c1-n1c(=O)cc(C(F)(F)F)n(C)c1=O [2-127] 0

Quick one: COc1c(C#N)cc(F)c(-n2c(=O)cc(C(F)(F)F)n(C)c2=O)c1NC(=O)c1ccc2ccccc2c1 [2-181] 15

Can you handle COc1c(Br)cc(F)c(-n2c(=O)cc(C(F)(F)F)n(C)c2=O)c1N(C(=O)C=Cc1ccccc1)C(=O)C=Cc1ccccc1 [2-176] next? 0

Same question, Cn1c(C(F)(F)F)cc(=O)n(-c2ccc(Cl)cc2NC(=O)C=Cc2ccccc2)c1=O [2-137] this time 20

And what about the compound COc1c(Cl)cc(F)c(-n2c(=O)cc(C(F)(F)F)n(C)c2=O)c1NC(=O)c1c(C)cccc1C [2-124] ? 0

Next compound: COc1c(Cl)cc(F)c(-n2c(=O)cc(C(F)(F)F)n(C)c2=O)c1NC(=O)Cc1ccccc1 [2-151] 0

Consider next the compound CCSCC(=O)Nc1c(OC)c(Cl)cc(F)c1-n1c(=O)cc(C(F)(F)F)n(C)c1=O [2-172] in the same way. 10
